experimental.system: SARS-CoV-2 spike receptor binding domain (RBD), wild type (SARS-CoV-2, UniProt P0DTC2 319-539)
protocol: ELISA on coated RBD protein
Please provide measured EC50 for the entries that follow.
Reply with the number and its unit after it.

[Q] Item under review: C055 (antibody, V domains shown) VH: EVQLVESGGGLVQPGGSLRLSCAASGFSVSTKYMTWVRQAPGKGLEWVSVLYSGRTDYYADSVKGRFTISRDSSKNILYLQMSSLRVEDTGFYYCARDSSEVRDHPGHPGRSVGAFDIWSQGTMVTVSS VL: QSALTQPASVSGSPGQSIAISCTGTSNDVGSYTLVSWYQQYPGKAPKLLIFEDSQRSSGISNRFSGSKSGNTASLTISGLRGEDEADYYCCSYAGSHTFVFGGGTKVTVL . Reported EC50?
[A] 1.25 ng/mL

[Q] Param item: C046 (antibody, V domains shown) VH: EVQLVESGGGLAQPGRSLRLSCAASGFTFDDYAMHWVRQAPGKGLEWVSGINWNSGSLGYADSVKGRFTISRGIAKNSLYLQMNSLRPEDTAFYYCAKAGVRGIAAAGPDLNFDYWGQGTLVTVSS VL: EIVLTQSPATLSLSPGERATLSCRASQSVSSYLAWYQQKPGQAPRLLIYDASNRATGIPARFIGSGSGTDFTLTISSLEPEDFAVYYCQQRITFGQGTRLEIK
[A] 4.02 ng/mL
